meta.source: paper PMC5261807

Target: T1, Bdf1 bromodomain 2 (GST-tagged, WT) (Saccharomyces cerevisiae (strain ATCC …, UniProt P35817))
T1 chain: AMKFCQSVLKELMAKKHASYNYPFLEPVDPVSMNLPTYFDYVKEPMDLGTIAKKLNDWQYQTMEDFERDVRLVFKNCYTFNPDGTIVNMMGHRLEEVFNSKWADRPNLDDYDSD
Test: histone peptide array probed with recombinant GST-bromodomain, signal normalised to myc peptide control
Non-standard residues stand in square brackets, D forms with d. No end group written: not given here. Lys(Me3) = C[N+](C)(C)CCCC[C@H](N)C(=O)O; pT = C[C@@H](OP(=O)(O)O)[C@H](N)C(=O)O
value kind: binding score

| binder | binding score |
| --- | --- |
| AR[pT]K(Me)QTARKSTGGKAPRKQ | 0.00679 |

(P) ARTKQTARKSTGGKAPRKQ (A Rme2s T Kme3 Q T A Rme2a Kme3 S T G G K A P R K Q)
(Q) SGRGKGGKGLGKGGAKRHR (pS G R G Kac G G K G L G K G G A K R H R) [H4 1-19]
(R) AR[pT][Lys(Me3)]QTARKSTGGKAPRKQ
Q) Thanks in advance: please rank these 3 entries by binding score, highest to lowest. Sort the labels as requested; that list is your answer.
A) Q, R, P
